assay: Plasma and brain concentrations in 6 Hz studies (LC-MS/MS); assay type: in vivo, mouse; details: mouse, plasma, intraperitoneal, 300 mg/kg, Studies 3B+3C combined, Levetiracetam 300 mg/kg IP 1 h alone; read-out: Plasma
result_type: concentration at 1 h (µM)
Answers are plain numbers, in µM.

Look up concentration at 1 h of CC[C@@H](C(N)=O)N1CCCC1=O [Levetiracetam, reference compound] and report it.
1640

---

test: Plasma and brain concentrations after MES testing (UHPLC-ESI-MS/MS); conditions: CF-1, mouse, in vivo, po, 8 mg/kg, Concentration Plasma, Compound A 8 mg/kg PO, 0.5 hr;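 note: brain and plasma were sampled from mice right after the efficacy test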
result_type: concentration at 0.5 h (ng/mL)
One number for each entry, in ng/mL.

Dear colleague, please send me the reported concentration at 0.5 h for "Cc1cc(N2CCc3cc(F)ccc3C2)cc(C)c1NC(=O)CC(C)(C)C" when you can.
261
